Method: Toxic reaction test: acute toxicity (LD50) in mice
Stated Conditions: mouse, in vivo, sc, subcutaneous injection
Metric Name: LD50 (mg/kg)

{"columns": ["Smiles Repr", "Metric Name", "Observed"],
 "data": [
  ["Cn1nnnc1SCC1=C(C(=O)[O-])N2C(=O)[C@@H](NC(=O)[C@H](OC=O)c3ccccc3)[C@H]2SC1.[Na+]", "LD50", 7260]
]}

====

Method: Toxic reaction test: acute toxicity (LD50) in rats
Stated Conditions: rat, in vivo, intravenous injection
Metric Name: LD50 (mg/kg)

{"columns": ["Molecule", "Observed"],
 "data": [
  ["Cn1nnnc1SCC1=C(C(=O)[O-])N2C(=O)[C@@H](NC(=O)[C@H](OC=O)c3ccccc3)[C@H]2SC1.[Na+] [Example 1]", 3420]
]}
